Values compiled from patent US11352350B2.

system: TNFα; experiment: Human whole blood LPS TNFα assay; format: cell-based; conditions: 20 h pretreatment, LPS 5 h, read-out: IRAK4 human whole blood LPS TNFa inhibition: Average external-IC50

COMPOUND	IC50
Cn1c(=O)n(C2CCC(=O)NC2=O)c2ccc(CN3CCN(CCO[C@H]4C[C@H](N(C)C(=O)[C@H]5CC[C@H](n6cc(NC(=O)c7coc(-c8ccnc(NCC9CC9)c8)n7)c(C(F)F)n6)CC5)C4)CC3)cc21 (some centres unmarked)	500 to 1000 nM
CN(CCOCCOCCCc1cccc2c1n(C)c(=O)n2C1CCC(=O)NC1=O)C(=O)[C@H]1CC[C@H](n2cc(NC(=O)c3coc(-c4ccnc(NCC5CC5)c4)n3)c(C(F)F)n2)CC1 (some centres unmarked)	> 1000 nM
CN(CCCOCCCc1cccc2c1n(C)c(=O)n2C1CCC(=O)NC1=O)C(=O)[C@H]1CC[C@H](n2cc(NC(=O)c3coc(-c4ccnc(NCC(F)(F)F)c4)n3)c(C(N)=O)n2)CC1 (some centres unmarked) [I-29]	> 1000 nM
Cn1c(=O)n(C2CCC(=O)NC2=O)c2cccc(CCCOCCN3CCN(C[C@H]4CC[C@H](n5cc(NC(=O)c6coc(-c7ccnc(NCC8CC8)c7)n6)c(C(F)F)n5)CC4)CC3)c21 (some centres unmarked)	> 1000 nM
Cn1c(=O)n(C2CCC(=O)NC2=O)c2ccc(CCCCOCCCCNC[C@H]3CC[C@H](n4cc(NC(=O)c5cnn6ccc(N7CCNCC7)nc56)c(C(F)F)n4)CC3)cc21 (some centres unmarked)	> 1000 nM

---

system: OCI-LY10; experiment: CTG Cell Viability Assay - OCI-LY10; format: cell-based, human; conditions: Homo sapiens, OCI-Ly10, 96 h, OCI-LY10, 4 days; read-out: CTG Cell Viability Assay - OCI-LY10: Average external-IC50

COMPOUND	IC50
CN(CC1CCC(n2cc(NC(=O)c3coc(-c4ccnc(NCC5CC5)c4)n3)c(C(F)F)n2)CC1)C[C@H]1CN(CCCc2cccc3c2n(C)c(=O)n3C2CCC(=O)NC2=O)CCO1 (some centres unmarked) [I-113]	> 1000 nM
CN(C[C@H]1CC[C@H](n2cc(NC(=O)c3cnn4ccc(N5CCOCC5)nc34)c(C(F)F)n2)CC1)[C@H]1C[C@H](Nc2cccc3c2C(=O)N(C2CCC(=O)NC2=O)C3=O)C1 (some centres unmarked) [I-458]	> 1000 nM
Cn1c(=O)n(C2CCC(=O)NC2=O)c2cccc(CCCOC3CCN(C(=O)[C@H]4CC[C@H](n5cc(NC(=O)c6cnn7ccc(N8CCNCC8)nc67)c(C(F)F)n5)CC4)CC3)c21 (some centres unmarked) [I-136]	> 1000 nM
CN(C[C@H]1CC[C@H](C2N=C(NC(=O)c3cnn4ccc(N5CCOCC5)nc34)C(C(F)F)=N2)CC1)C1CCC(CNc2cccc3c2C(=O)N(C2CCC(=O)NC2=O)C3=O)CC1 (some centres unmarked) [I-459]	< 50 nM
O=C1CCC(n2c3ccccc3c3c(CCCOCCOCCNC[C@H]4CC[C@H](n5cc(NC(=O)c6coc(-c7ccnc(NCC8CC8)c7)n6)c(C(F)F)n5)CC4)ccnc32)C(=O)N1 (some centres unmarked) [I-92]	100 to 500 nM
CN(CCCOCCCc1ccc2c(c1)c1cccnc1n2C1CCC(=O)NC1=O)C[C@H]1CC[C@H](n2cc(NC(=O)c3coc(-c4ccnc(NCC5CC5)c4)n3)c(C(F)F)n2)CC1 (some centres unmarked) [I-46]	500 to 1000 nM
CN(CCCOCCCc1cccc2c1C(=O)N(C1CCC(=O)NC1=O)C2=O)C[C@H]1CC[C@H](n2cc(NC(=O)c3coc(-c4ccnc(NCC5CC5)c4)n3)c(C(F)F)n2)CC1 (some centres unmarked) [I-167]	100 to 500 nM
CN(C[C@H]1CC[C@H](n2cc(NC(=O)c3cnn4ccc(N5CCOCC5)nc34)c(C(F)F)n2)CC1)[C@H]1CC[C@H](Nc2cccc3c2C(=O)N(C2CCC(=O)NC2=O)C3=O)CC1 (some centres unmarked) [I-355]	100 to 500 nM
CN(CCCOCCCN)C[C@H]1CC[C@H](n2cc(NC(=O)c3cnn4ccc(N5CCOCC5)nc34)c(C(F)F)n2)CC1 [I-315]	> 1000 nM
CN(CCOCCCc1ccc2c(c1)n(C)c(=O)n2C1CCC(=O)NC1=O)C[C@H]1CC[C@H](n2cc(NC(=O)c3coc(-c4ccnc(NCC5CC5)c4)n3)c(C(F)F)n2)CC1 (some centres unmarked) [I-128]	> 1000 nM
O=C1CCC(N2C(=O)c3cccc(CCCOC4CCN(C[C@H]5CC[C@H](n6cc(NC(=O)c7coc(-c8ccnc(NCC9CC9)c8)n7)c(C(F)F)n6)CC5)CC4)c3C2=O)C(=O)N1 (some centres unmarked) [I-171]	100 to 500 nM
Cn1c(=O)n(C2CCC(=O)NC2=O)c2cccc(CCCOC3CCN(C[C@H]4CC[C@H](n5cc(NC(=O)c6cnn7ccc(N[C@@H]8CCCC(F)(F)[C@@H]8N)nc67)c(C(F)F)n5)CC4)CC3)c21 (some centres unmarked) [I-300]	500 to 1000 nM
O=C1CCC(N2C(=O)c3cccc(NCCOCCCN4CCN(c5ncc(-n6cc(NC(=O)c7cnn8ccc(N9C[C@H]%10C[C@@H]9CO%10)nc78)c(C(F)F)n6)cn5)CC4)c3C2=O)C(=O)N1 (some centres unmarked) [I-474]	< 50 nM
CN(C[C@H]1CC[C@H](n2cc(NC(=O)c3cnn4ccc(NCC5CC5)nc34)c(C(F)F)n2)CC1)[C@H]1CC[C@H](Nc2cccc3c2C(=O)N(C2CCC(=O)NC2=O)C3=O)CC1 (some centres unmarked) [I-453]	50 to 100 nM
O=C1CCC(N2C(=O)c3cccc(NC4CCN(C5CCN(C[C@H]6CC[C@H](n7cc(NC(=O)c8cnn9ccc(N%10CCOCC%10)nc89)c(C(F)F)n7)CC6)CC5)CC4)c3C2=O)C(=O)N1 (some centres unmarked) [I-232]	< 50 nM
Cc1nc2cccc(NCCCOC3CCN(C[C@H]4CC[C@H](n5cc(NC(=O)c6cnn7ccc(N8CCOCC8)nc67)c(C(F)F)n5)CC4)CC3)c2c(=O)n1C1CCC(=O)NC1=O (some centres unmarked) [I-211]	50 to 100 nM
CN(CC1(CNc2cccc3c2C(=O)N(C2CCC(=O)NC2=O)C3=O)CCC1)C[C@H]1CC[C@H](n2cc(NC(=O)c3cnn4ccc(N5C[C@H]6C[C@@H]5CO6)nc34)c(C(F)F)n2)CC1 (some centres unmarked) [I-491]	> 1000 nM
O=C1CCC(N2C(=O)c3cccc(NCC(=O)N4CC5(CCN(C[C@H]6CC[C@H](n7cc(NC(=O)c8cnn9ccc(N%10CCOCC%10)nc89)c(C(F)F)n7)CC6)CC5)C4)c3C2=O)C(=O)N1 (some centres unmarked) [I-443]	< 50 nM
Cc1ncsc1-c1ccc(CNC(=O)[C@@H]2C[C@@H](O)CN2C(=O)[C@@H](NC(=O)COCCOCCOCC(=O)N2CCN([C@H]3CC[C@H](Nc4ncnc5cc(CC#N)ccc45)CC3)CC2)C(C)(C)C)cc1 [I-50]	> 1000 nM
CC([C@H]1CC[C@H](n2cc(NC(=O)c3coc(-c4ccnc(NCC5CC5)c4)n3)c(C(F)F)n2)CC1)N1CCC(OCCCc2cccc3c2n(C)c(=O)n3C2CCC(=O)NC2=O)CC1 (some centres unmarked) [I-301]	< 50 nM

---

biological target: UniProt:Q9NWZ3; experiment: IRAK4 MSD degradation in OCI-LY10; type: cell-based; conditions: OCI-LY10, 4 hrs; read-out: IRAK4 MSD degradation in OCI-LY10 at 4 hrs: DC50
Sequence (Q9NWZ3 whole entry): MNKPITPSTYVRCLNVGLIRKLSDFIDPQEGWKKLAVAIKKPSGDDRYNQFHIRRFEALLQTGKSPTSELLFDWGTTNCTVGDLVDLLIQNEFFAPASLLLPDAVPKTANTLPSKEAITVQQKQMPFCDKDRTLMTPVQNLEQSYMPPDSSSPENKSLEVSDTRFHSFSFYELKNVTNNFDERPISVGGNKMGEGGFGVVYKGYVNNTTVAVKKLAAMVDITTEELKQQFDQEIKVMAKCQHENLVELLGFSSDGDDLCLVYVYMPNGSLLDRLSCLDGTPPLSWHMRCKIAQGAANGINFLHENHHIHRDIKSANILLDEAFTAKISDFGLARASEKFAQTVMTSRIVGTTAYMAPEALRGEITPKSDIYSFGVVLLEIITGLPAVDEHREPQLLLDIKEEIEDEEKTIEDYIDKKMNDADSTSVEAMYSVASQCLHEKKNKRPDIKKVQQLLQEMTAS

COMPOUND	DC50
CN(C[C@H]1CC[C@H](n2cc(NC(=O)c3cnn4ccc(N5C[C@H]6C[C@@H]5CO6)nc34)c(C(F)F)n2)CC1)C1CCN(Cc2cccc3c2n(C)c(=O)n3C2CCC(=O)NC2=O)CC1 (stereo partly shown)	< 10 nM
Cn1c(=O)n(C2CCC(=O)NC2=O)c2cccc(C#CCOC3CCN(C[C@H]4CC[C@H](n5cc(NC(=O)c6cnn7ccc(N8CCOC(C)(C)C8)nc67)c(C(F)F)n5)CC4)CC3)c21 (stereo partly shown)	10 to 100 nM
O=C1CCC(N2C(=O)c3cccc(NC[C@H]4CC[C@H](OC5CCN(C[C@H]6CC[C@H](n7cc(NC(=O)c8cnn9ccc(N%10CCOCC%10)nc89)c(C(F)F)n7)CC6)CC5)CC4)c3C2=O)C(=O)N1 (stereo partly shown)	10 to 100 nM
Cn1c(=O)n(C2CCC(=O)NC2=O)c2cccc(CCCCN3CCN(C[C@H]4CC[C@H](n5cc(NC(=O)c6cnn7ccc(N8C[C@H]9C[C@@H]8CO9)nc67)c(C(F)F)n5)CC4)CC3)c21 (stereo partly shown)	< 10 nM
CN(C[C@H]1CC[C@H](n2cc(NC(=O)c3cnn4ccc(NCC5CC5)nc34)c(C(F)F)n2)CC1)[C@H]1CC[C@H](Nc2cccc3c2C(=O)N(C2CCC(=O)NC2=O)C3=O)CC1 (stereo partly shown)	10 to 100 nM
Cc1ccc(-c2nn([C@H]3CC[C@H](C(=O)N4CCC5(CC4)CN(CCCc4cccc6c4n(C)c(=O)n6C4CCC(=O)NC4=O)C5)CC3)cc2NC(=O)c2cnn3cccnc23)nc1 (stereo partly shown)	< 10 nM
Cn1c(=O)n(C2CCC(=O)NC2=O)c2cccc(C#CCCCOCc3ccc(-n4cc(NC(=O)c5cnn6ccc(N7C[C@H]8C[C@@H]7CO8)nc56)c(C(F)F)n4)cc3)c21 (stereo partly shown)	100 to 1000 nM
O=C1CCC(N2C(=O)c3cccc(NCC4CCC5(CC4)CN(C[C@H]4CC[C@H](n6cc(NC(=O)c7cnn8ccc(N9C[C@H]%10C[C@@H]9CO%10)nc78)c(C(F)F)n6)CC4)C5)c3C2=O)C(=O)N1 (stereo partly shown)	100 to 1000 nM
C[C@H]1CN(c2ccn3ncc(C(=O)Nc4cn([C@H]5CC[C@H](CN6CCC(OCC#Cc7cccc8c7n(C)c(=O)n8C7CCC(=O)NC7=O)CC6)CC5)nc4C(F)F)c3n2)C[C@H](C)O1 (stereo partly shown)	10 to 100 nM
C[C@@H]1CN(c2ccn3ncc(C(=O)NC4=NC([C@H]5CC[C@H](CN6CCC(CC#Cc7cccc8c7n(C)c(=O)n8C7CCC(=O)NC7=O)CC6)CC5)N=C4C(F)F)c3c2)C[C@H](C)O1 (stereo partly shown)	10 to 100 nM
